B1: glmS ribozyme (parent)
chain: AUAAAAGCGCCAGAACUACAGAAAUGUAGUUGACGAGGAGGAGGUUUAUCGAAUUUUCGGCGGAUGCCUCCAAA

- Variants of: B1
- experimentalDetails: self-cleavage kobs at 10000 uM GlcN6P; higher = faster cleavage; RNA array
- conditions: with glucosamine-6-phosphate
This sample holds only a part of the variants without activity.
Label MET for high-side self-cleavage kobs at 10000 uM GlcN6P (at or above 0.001 s⁻¹) and NOT MET for low-side self-cleavage kobs at 10000 uM GlcN6P (below it).

Consider the worked cases shown below.
U47A A48C
NOT MET
A14C U47G U54C
MET
G59U G62A
NOT MET
G38C C67U
NOT MET
G32U A39U G60A C67U
NOT MET
A6U A12C U45A A52C
NOT MET

Task: Test whether the variant C61G C70U records self-cleavage kobs at 10000 uM GlcN6P of 0.001 s⁻¹ or higher.
Output: NOT MET

Task: Try this variant too: C34G A64C C67A
Output: NOT MET

Task: Check C10U G40C G44U too.
Output: NOT MET

Task: And for A12U A33C G37C ?
Output: NOT MET

Task: Moving on to A12C U55C
Output: MET

Task: Another: G44C C67A
Output: MET

Task: Proceed to G13A G32U
Output: NOT MET

Task: Entry to check: A6C G32U C50A
Output: NOT MET

Task: And the next one, A39U A42C C50G ?
Output: NOT MET

Task: Moving on to C8A G35U C70G
Output: NOT MET

Task: Subsequent entry: A39G A48U
Output: NOT MET

Task: Also G37C U55A ?
Output: NOT MET

Task: What about A6C G63C ?
Output: NOT MET

Task: Same for U57C C68A
Output: NOT MET

Task: What would you report for C10U G37C ?
Output: NOT MET

Task: Same question for A39G U47C please.
Output: MET
